molecular target: hT2R61 (Homo sapiens (Human)); assay: hT2R panel inhibition, transient HEK293 G16g44, agonist Aristolochic Acid 25 nM; assay type: cell-based; conditions: HEK293, compound at 25 μM; receptor activated to EC80 with agonist; read-out: inhibition of bitter receptor 61
Sequence (P59537 whole entry): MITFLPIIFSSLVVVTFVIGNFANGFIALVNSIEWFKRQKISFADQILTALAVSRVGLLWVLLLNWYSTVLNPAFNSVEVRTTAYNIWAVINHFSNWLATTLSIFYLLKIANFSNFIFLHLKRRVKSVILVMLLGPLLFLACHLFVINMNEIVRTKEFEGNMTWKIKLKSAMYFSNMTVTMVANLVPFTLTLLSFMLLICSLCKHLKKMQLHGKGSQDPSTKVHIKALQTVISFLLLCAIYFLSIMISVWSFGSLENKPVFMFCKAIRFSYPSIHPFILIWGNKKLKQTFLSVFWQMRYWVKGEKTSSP
REPORTED ENDPOINT: inhibition at 25 µM

Ask: For the compound COc1ccc2c(c1)-c1ccccc1CN(S(=O)(=O)c1ccc(C(=O)O)cc1)C2 , what inhibition at 25 µM is on record?
Result: 40 to 60%

Ask: Next compound up: CCOc1ccc(CN(Cc2ccccc2)S(=O)(=O)c2ccc(C(=O)O)cc2)cc1
Result: > 80%

Ask: Next compound up: Cc1cc2c(cc1S(=O)(=O)Nc1ccc(F)cc1)n(C)c(=O)c(=O)n2C
Result: 20 to 40%
